- Experiment Description: Caspase-3/7 induction in HepG2 cells by small molecules, qHTS assay (AID 1346978); also: % is scaled to controls: 0 for no effect and ±100 for the full control effect; nearly all actives have a fitted effect of over 15% in size
- Condition Notes: HepG2 caspase-3/7 activation, Caspase-Glo luminescence, 17 h; series mostly up to 92.4 µM
Inconclusive results are not listed. The source made the active and inactive calls. Calls follow the shape of the dose curve; as a rule, active = well fitted activation curve with a large enough effect in the repeat runs; inconclusive = weak or mixed curves; inactive = flat fitted curve, though single readings scatter.
Test Readout: caspase activation

CCOP(=S)(OCC)SCSc1ccc(Cl)cc1; inactive
COC(C)(C)C; inactive
CC(=O)[C@H]1CC[C@H]2[C@@H]3CC[C@H]4C[C@H](O)CC[C@]4(C)[C@H]3C(=O)C[C@]12C; inactive
CNNC; inactive
CC1=C(C(=O)O)N2C(=O)[C@@H](N)[C@H]2SC1; -0.113% [at 19 µM] (inactive)

For every listed record, write down its caspase activation.
1. N#CC(Cl)(Cl)Cl
2. CCCCOC(=O)c1ccccc1C(=O)O

Output:
["inactive", "inactive"]

Data credit: PubChem BioAssay (Tox21)
